// collision cross section (N2) lookup, one value per entry
- measurement.setup: [M+H]+; instrument: TW
parameter.measured: collision cross section (N2) (Å²)

- CC(Oc1ccc(Oc2ncc(C(F)(F)F)cc2Cl)cc1)C(=O)O (stereo unspecified): 179.86
- COc1cc(NS(=O)(=O)c2ccc(N)cc2)nc(OC)n1: 166
- COCC(=O)N(c1c(C)cccc1C)C(C)C(=O)OC (stereo unspecified) [Metalaxyl]: 159.96
- CON(C)C(=O)Nc1ccc(Cl)c(Cl)c1: 149.63
- COC(=O)NC(=S)Nc1ccccc1NC(=S)NC(=O)OC [Thiophanate-methyl]: 174.24
- CCN(Cc1ccc(Cl)nc1)/C(=C/[N+](=O)[O-])NC: 160.32
